# Tested on: HOP-92 NSCLC
# assay method text: NCI tumour cell line growth inhibition, 48 h
reported endpoint: TGI

Example entries begin here.
>>> result_value("OCC1OC(N2CCN(C3OC(CO)C(O)C(O)C3O)CC2)C(O)C(O)C1O (stereo not given)")
"> 100 µM"
>>> result_value("COc1ccc(C2[C@@H](Cl)C(=O)N2c2ccc(OC)cc2)cc1 (stereo not given in full)")
"39.5 µM"
>>> result_value("CCN1C(=O)N(CC)C2C1NN=c1s/c(=C\\c3ccc(Br)cc3)c(=O)n12 (stereo not given)")
"> 63.7 µM"
>>> result_value("C1=Nc2ccc(cc2)-c2ccc(cc2)N=Cc2ccccc2OCc2cccc(n2)COc2ccccc21")
"> 60 µM"
>>> result_value("Nc1ccc2ncc(NCc3ccc(F)cc3)nc2c1")
"> 100 µM"
>>> result_value("C/C(COc1ccccc1)=N\\NC(N)=S")
"> 100 µM"
>>> result_value("CCOC1=C2N=C(C(CC)c3ccc(F)cc3)N=C2C(=O)c2ccccc21 (stereo not given)")
"66.3 µM"
>>> result_value("O=C1C2=C(c3ccccc31)C(c1ccc([N+](=O)[O-])cc1)NC(=S)N2 (stereo not given)")
"> 100 µM"
>>> result_value("Cc1[nH]c(-c2ccccc2)c(O)c1C(=O)OC1CC(C)CCC1C(C)C (stereo not given)")
"32.7 µM"
>>> result_value("C=C1[C@H](O)C[C@@H](C(C)C(O)CC=C(C)C)[C@@H](O)[C@@H]2C(C)=CC[C@@H]12 (stereo not given in full)")
"> 100 µM"

**Q:** Tell me reported TGI for Nc1nc(N)c2c(n1)NC(c1ccc(Cl)cc1)C1CCc3ccccc3C1=N2 (stereo not given) , tested with HOP-92 NSCLC.
**A:** 9.83 µM

###

# System: LOX IMVI melanoma
# assay method text: NCI tumour cell line growth inhibition, 48 h
reported endpoint: TGI

>>> result_value("COC(=O)C12CCC(CC1=O)C2(C)C (centres undefined)")
"> 100 µM"
>>> result_value("NC1=NN(c2ccccc2)C(=O)C1/C(=N\\NC(=O)c1cc2ccccc2cc1O)C(=O)Nc1ccc(Cl)c(Cl)c1 (centres undefined)")
"> 100 µM"
>>> result_value("Nc1nc(Cl)cc(OCC2(CO)CCCCC2)n1")
"> 100 µM"

**Q:** Bench note: what TGI did COc1cc([C@@H]2c3cc4c(cc3[C@H](OC3OC5COC(C(C)C)OC5C(O)C3O)C3COC(=O)[C@@H]32)OCO4)cc(OC)c1OC (some centres undefined) show?
**A:** 27 µM

**Q:** Bench note: what TGI did Cc1c(-c2c(F)cc(C(N)=O)c3[nH]c4c(c23)CC[C@H](C(C)(C)O)C4)cccc1-n1c(=O)c2cccc(F)c2n(C)c1=O show?
**A:** > 100 µM

###

# Tested on: M14 melanoma
# assay method text: NCI tumour cell line growth inhibition, 48 h
Please note: Fulfilled applies when TGI is 20 µM or greater, and Not fulfilled applies otherwise.

Please review the entries below; each comes with its answer.
>>> class_assignment("COc1cc(N2CCN(C(C)C)CC2)ccc1Nc1nc(Nc2ccc(F)cc2C(N)=O)c2cc[nH]c2n1")
"Not fulfilled"
>>> class_assignment("CC(C)(C)c1ccc(OCCOc2ccc(C(C)(C)C)cc2NC=O)c(NC=O)c1")
"Fulfilled"
>>> class_assignment("Cc1ccc(S(=O)(=O)N(CC(O)COc2ccccc2)c2ccccc2Cl)cc1 (stereo not given)")
"Fulfilled"
>>> class_assignment("Cn1cnc([N+](=O)[O-])c1Sc1nnc(-c2ccc(Cl)cc2)n1C")
"Fulfilled"
>>> class_assignment("O=c1oc2c(Cl)cc(Cl)cc2cc1-c1cn2c(n1)sc1ccccc12")
"Fulfilled"
>>> class_assignment("COc1ccc2c(c1)C(=O)CC(C(N)=O)C2 (stereo not given)")
"Fulfilled"

**Q:** # bool: TGI of O=C(C#Cc1ccccc1)Nc1ccccc1CC(c1c[nH]c2ccccc12)c1c[nH]c2ccccc12 >= 20 µM
**A:** Fulfilled

**Q:** # bool: TGI of CN(C)CC(O)CNC(=O)Nc1ccccc1 (stereo not given) >= 20 µM
**A:** Fulfilled

**Q:** # bool: TGI of CC(=O)OCc1cc[c]([Hg][Cl])o1 >= 20 µM
**A:** Not fulfilled

**Q:** # bool: TGI of O=C(COc1ccc(Cl)cc1Cl)NNc1ccc([N+](=O)[O-])cc1 >= 20 µM
**A:** Fulfilled
